Species: Cavia porcellus
Experiment: The dose which shows the cross-reactivity with guinea pig sensitized to poison ivy urushiol
Assay type: functional
Recorded Dose values for a group of compounds are listed next.
REPORTED_PROPERTY: Dose (µg)

[
  {
    "STRUCTURE_AS_SMILES": "CCCCCCCCCCCCCCCc1ccc(O)cc1O",
    "REPORTED_PROPERTY": "Dose",
    "QUANTITATIVE_RESULT": 30
  },
  {
    "STRUCTURE_AS_SMILES": "CCCCCCCCCCCCCCCc1cccc(N)c1O",
    "REPORTED_PROPERTY": "Dose",
    "QUANTITATIVE_RESULT": 10
  },
  {
    "STRUCTURE_AS_SMILES": "CCCCCCCCCCCCCCCc1cccc(O)c1N",
    "REPORTED_PROPERTY": "Dose",
    "QUANTITATIVE_RESULT": 10
  },
  {
    "STRUCTURE_AS_SMILES": "CCCCCCCCCCCCCCCc1ccc(O)c(O)c1",
    "REPORTED_PROPERTY": "Dose",
    "QUANTITATIVE_RESULT": 1
  },
  {
    "STRUCTURE_AS_SMILES": "CCCCCCCCCCCCCCCc1cc(O)ccc1O",
    "REPORTED_PROPERTY": "Dose",
    "QUANTITATIVE_RESULT": 1
  },
  {
    "STRUCTURE_AS_SMILES": "CCCCCCCCCCCCCCc1c(O)cccc1O",
    "REPORTED_PROPERTY": "Dose",
    "QUANTITATIVE_RESULT": 10
  },
  {
    "STRUCTURE_AS_SMILES": "CCCCCCCCCCCCCc1cccc(O)c1N",
    "REPORTED_PROPERTY": "Dose",
    "QUANTITATIVE_RESULT": 10
  },
  {
    "STRUCTURE_AS_SMILES": "CCCCCCCCCCCCCc1cccc(O)c1NS(C)(=O)=O",
    "REPORTED_PROPERTY": "Dose",
    "QUANTITATIVE_RESULT": 10
  },
  {
    "STRUCTURE_AS_SMILES": "CCCCCCCCCCCCCCCc1cccc(NS(C)(=O)=O)c1O",
    "REPORTED_PROPERTY": "Dose",
    "QUANTITATIVE_RESULT": 10
  },
  {
    "STRUCTURE_AS_SMILES": "CCCCCCCCCCCCCCCCCc1cccc(O)c1N",
    "REPORTED_PROPERTY": "Dose",
    "QUANTITATIVE_RESULT": 10
  },
  {
    "STRUCTURE_AS_SMILES": "CCCCCCCCCCCCCCCCCc1cccc(O)c1NS(C)(=O)=O",
    "REPORTED_PROPERTY": "Dose",
    "QUANTITATIVE_RESULT": 10
  },
  {
    "STRUCTURE_AS_SMILES": "CCCCCCCCCCCCCCCc1cc(O)cc(O)c1",
    "REPORTED_PROPERTY": "Dose",
    "QUANTITATIVE_RESULT": 30
  },
  {
    "STRUCTURE_AS_SMILES": "CCCCCCCCCCCCCCCc1cccc(O)c1NS(C)(=O)=O",
    "REPORTED_PROPERTY": "Dose",
    "QUANTITATIVE_RESULT": 10
  }
]

Values compiled from ChEMBL document CHEMBL1123164.
